- experimentalSystem: human S1PR4 (Homo sapiens, UniProt O95977)
- Construct: host or cells: CHO-K1
- Sequence (O95977 whole entry): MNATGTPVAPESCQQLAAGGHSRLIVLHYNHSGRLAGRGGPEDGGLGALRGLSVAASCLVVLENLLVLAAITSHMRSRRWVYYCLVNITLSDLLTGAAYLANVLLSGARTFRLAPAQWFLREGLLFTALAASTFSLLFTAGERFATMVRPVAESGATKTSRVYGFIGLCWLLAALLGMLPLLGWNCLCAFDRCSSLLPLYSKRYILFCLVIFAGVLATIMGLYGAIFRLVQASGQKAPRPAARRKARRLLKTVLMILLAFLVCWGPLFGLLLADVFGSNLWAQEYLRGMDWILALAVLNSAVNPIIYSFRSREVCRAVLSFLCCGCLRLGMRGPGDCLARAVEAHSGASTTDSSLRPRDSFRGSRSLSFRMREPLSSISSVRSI
- testProtocol: Intracellular Ca2+ release (FLIPR) agonist potency, S1P4
- Assay type: cell-based
- testContext: recombinant CHO-K1 cells expressing human S1PR4, aequorin, Gq/i5; Calcium 5 FLIPR; read-out: S1P4 EC50
pEC50: −log10 of the molar value.
Recorded pEC50 values for a group of molecules are listed next.
measurementKind: pEC50

INSERT INTO measurements (molecule, measurement) VALUES
  ('O=C(O)CNC1CCc2cc(C#Cc3c(Cl)cccc3Cl)ccc2C1 (stereo not drawn)', '> 6.00'),
  ('CCc1cccc(F)c1COc1ccc2c(c1)OCC(N1CC(C(=O)O)C1)C2 (single isomer, unassigned) [Compound 147]', '> 6.00'),
  ('O=C(O)C1CCN(C2COc3cc(OCc4c(Cl)cccc4Cl)ccc3C2)C1 (single isomer, unassigned)', '< 6.00'),
  ('CCc1cccc(Cl)c1COc1ccc2c(c1)OCC(NC1(C(=O)O)CCC1)C2 (stereo not drawn)', '> 6.00'),
  ('CCc1cccc(Cl)c1COc1ccc2c(c1)CCC(NCC(=O)O)C2 (stereo not drawn)', '> 6.00'),
  ('O=C(O)COC1CCc2cc(OCc3c(Cl)cccc3Cl)ccc2C1 (stereo not drawn)', '< 6.00'),
  ('CCc1cccc(Cl)c1COc1ccc2c(c1)OCC(N1CCC(CC(=O)O)C1)C2 (stereo not drawn)', '> 6.00'),
  ('O=C(O)C1CCN(C2COc3cc(OCc4c(Cl)cccc4Cl)ccc3C2)CC1 (stereo not drawn)', '> 6.00'),
  ('COc1cc(COc2ccc3c(c2)OCC(N2CC(C(=O)O)C2)C3)ccc1F (stereo not drawn)', '< 6.00'),
  ('O=C(O)C1CN(C2COc3cc(OCc4c(Cl)cccc4Cl)ccc3C2)C1 (stereo not drawn) [Compound 1]', '< 6.00'),
  ('O=C(O)CCNC1CCc2cc(/C=C/c3ccccc3)ccc2C1 (stereo not drawn)', '> 6.00'),
  ('O=C(O)CCOC1CCc2cc(OCc3cccc(C(F)(F)F)c3)ccc2C1 (stereo not drawn)', '> 6.00'),
  ('O=C(O)COC1CCc2cc(OCc3ccc(Cl)cc3Cl)ccc2C1 (stereo not drawn)', '< 6.00'),
  ('O=C(O)COC1CCc2cc(OCc3cccc(C(F)(F)F)c3)ccc2C1 (stereo not drawn)', '> 6.00'),
  ('CC(C)C(NC1CCc2cc(OCc3c(Cl)cccc3Cl)ccc2C1)C(=O)O (stereo not drawn)', '< 6.00'),
  ('O=C(O)C1CN(C2COc3cc(OCc4ccc(Cl)cc4Cl)ccc3C2)C1 (stereo not drawn)', '< 6.00'),
  ('CCc1cccc(Cl)c1COc1ccc2c(c1)CCC(NCC(=O)NOC)C2 (stereo not drawn)', '< 6.00'),
  ('CCc1cccc(Cl)c1COc1ccc2c(c1)CCC(N(C)CCC(=O)O)C2 (stereo not drawn)', '> 6.00');

All figures here come from patent US10280159B2.
